Ref: paper PMC5584254

Molecular target: Bcl-xL-Beclin 1 complex (Homo sapiens, UniProt Q07817)
Construct: made in house
Sequence (Q07817 whole entry, one chain of several): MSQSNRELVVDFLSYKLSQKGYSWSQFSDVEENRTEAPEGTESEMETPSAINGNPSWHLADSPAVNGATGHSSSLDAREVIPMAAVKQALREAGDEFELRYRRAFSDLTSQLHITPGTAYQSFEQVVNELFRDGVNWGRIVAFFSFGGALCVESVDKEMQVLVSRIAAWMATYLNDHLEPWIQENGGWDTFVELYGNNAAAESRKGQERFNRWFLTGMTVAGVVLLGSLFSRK
Experiment: Concentration response FP reconfirmation of HTS hits
Format: binding
Conditions: 20 μM; hits of first screen; read-out: Dose-response (% Inhibition) 20 μM
Structures can show the parent of a compound that is named as a salt.
Some compounds, each annotated with its measured inhibition at 20 µM.
The answer is to be given in %; state only the numeric part.

Answered cases to consult:
Cc1cc2nc3c(=O)[nH]c(=O)nc-3n(C[C@H](O)[C@H](O)[C@H](O)CO)c2cc1C [Compound A31, RIBOFLAVIN]
103
CCc1oc2ccccc2c1C(=O)c1cc(Br)c(O)c(Br)c1 [Compound A20, BENZBROMARONE]
1
OCCN(CCO)c1nc(N2CCCCC2)c2nc(N(CCO)CCO)nc(N3CCCCC3)c2n1 [Compound A22, DIPYRIDAMOLE]
35.1

Now let's try a different one.
Item CC1=NCCc2c1[nH]c1cc(O)ccc21 [Compound A28, HARMALOL HYDROCHLORIDE] has what recorded inhibition at 20 µM?
41.6

###

System: DU145
Assay: MTT-based cytotoxicity assay, DU145
Conditions: Homo sapiens, DU-145, averages of at least two independent experiments, read-out: Cytotoxicity in different cell lines (IC50, μM) DU145
Counter-ions that a name gives are not always drawn.
Some compounds, each annotated with its measured IC50.
The answer is to be given in µM; state only the numeric part.

Item "COc1ccc2nc3cc(Cl)ccc3c(N3CCN(C)CC3)c2c1" has what recorded IC50?
6.24

Another compound to look at: "COc1ccc2nc3cc(Cl)ccc3c(-c3ccc(N)cc3)c2c1"
53

Another compound to look at: CCN(CC)CCCC(C)Nc1c2ccc(Cl)cc2nc2ccc(OC)cc12 (centres unmarked) [Compound A21, QUINACRINE HYDROCHLORIDE]
2.31

Another compound to look at: "CCN(CC)CCCCNc1c2ccc(Cl)cc2nc2ccc(OC)cc12"
0.27

Another compound to look at: "COc1cc(Br)c(CCNc2c3ccccc3nc3ccccc23)cc1OC"
6.33

Another compound to look at: "COc1ccc2nc3cc(Cl)ccc3c(Oc3ccccc3)c2c1"
77.7

Another compound to look at: "COc1ccc(CCN(C)c2c3ccccc3nc3ccccc23)cc1OC"
8.15

Another compound to look at: "COc1ccc2nc3cc(Cl)ccc3c(-c3ccc(NC(=O)OC(C)(C)C)cc3)c2c1"
36

Another compound to look at: "CN(CCc1ccc(O)c(O)c1)c1c2ccccc2nc2ccccc12"
47

Another compound to look at: "Nc1c2ccccc2nc2ccccc12"
2.78

Another compound to look at: "COc1ccc2nc3ccccc3c(-c3ccncc3)c2c1"
45.4

###

Biological target: Bcl-xL-Beclin 1 complex (Homo sapiens)
Construct: made in house
Assay: Concentration response FP reconfirmation of HTS hits
Format: binding
Conditions: 10 μM; hits of first screen; read-out: Dose-response (% Inhibition) 10 μM
Structures can show the parent of a compound that is named as a salt.
Some molecules, each annotated with its measured inhibition at 10 µM.
Number first, unit second.

CCCc1nc2c(C)cc(-c3nc4ccccc4n3C)cc2n1Cc1ccc(-c2ccccc2C(=O)O)cc1
-0.6%
CC[C@@]1(O)C(=O)OCc2c1cc1n(c2=O)Cc2cc3c(CN(C)C)c(O)ccc3nc2-1 [Compound A23, TOPOTECAN HYDROCHLORIDE]
54.8%
COc1cccc2c1C(=O)c1c(O)c3c(c(O)c1C2=O)C[C@@](O)(C(=O)CO)C[C@@H]3O[C@H]1C[C@H](N)[C@H](O)[C@H](C)O1 [Compound A25, DOXORUBICIN HYDROCHLORIDE]
29.1%

Give the reported inhibition at 10 µM for "CCc1oc2ccccc2c1C(=O)c1cc(Br)c(O)c(Br)c1" (system: Bcl-xL-Beclin 1 complex (Homo sapiens)).
0.6%

Another molecule to look at: "O=C(O)C1=CC(=C(c2ccc(O)c(C(=O)O)c2)c2ccc(O)c(C(=O)O)c2)C=CC1=O"
2%

Another molecule to look at: "Cc1cc2nc3c(=O)[nH]c(=O)nc-3n(C[C@H](O)[C@H](O)[C@H](O)CO)c2cc1C"
77.7%

Another molecule to look at: "COC(=O)CC[C@@H](C)[C@H]1CC[C@H]2[C@@H]3[C@H](O)C[C@@H]4C[C@H](O)CC[C@]4(C)[C@H]3C[C@H](O)[C@]12C"
1.5%

Another molecule to look at: "COC(=O)Nc1nc2ccc(Sc3ccccc3)cc2[nH]1"
2.3%

Another molecule to look at: Nc1ccc2cc3ccc(N)cc3nc2c1 [Compound A13, PROFLAVINE HEMISULFATE]
65.8%

Another molecule to look at: CCCCC(CC)CCC(CC(C)C)OS(=O)(=O)O (centres unmarked) [Compound A06, SODIUM TETRADECYL SULFATE]
-3.8%

Another molecule to look at: COc1cccc2c1C(=O)c1c(O)c3c(c(O)c1C2=O)C[C@@](O)(C(=O)CO)C[C@@H]3O[C@H]1C[C@H](N)[C@@H](O)[C@H](C)O1 [Compound A24, EPIRUBICIN HYDROCHLORIDE]
11.3%

Another molecule to look at: "OCCN(CCO)c1nc(N2CCCCC2)c2nc(N(CCO)CCO)nc(N3CCCCC3)c2n1"
21%

Another molecule to look at: CCN(CC)CCCC(C)Nc1c2ccc(Cl)cc2nc2ccc(OC)cc12 (centres unmarked) [Compound A21, QUINACRINE HYDROCHLORIDE]
26.7%

Another molecule to look at: CC1=NCCc2c1[nH]c1cc(O)ccc21 [Compound A28, HARMALOL HYDROCHLORIDE]
31.2%

###

Target: Bcl-xL-Beclin 1 complex (Homo sapiens, UniProt Q07817)
Construct: made in house
Test: Concentration response FP reconfirmation of HTS hits
Type: binding
Conditions: 10 μM; hits of first screen
measured_endpoint: Dose-response (% Inhibition) 10 μM (%)
The answer is to be given in %; state only the numeric part.

Answered cases to consult:
CCCCCCCCCCCCCCCCC(C(=O)O)C(O)(CC(=O)O)C(=O)O (stereo not shown)
6.3
CCN(CC)CCNC(=O)COc1ccc(OC)cc1.Cl [Compound A32, MEFEXAMIDE HYDROCHLORIDE]
2.6
CC[N+](C)(CC)CCC[n+]1c(-c2ccccc2)c2cc(N)ccc2c2ccc(N)cc21.[I-].[I-] [Compound A40, PROPIDIUM IODIDE]
-0.2

Now let's try a different one.
Item C[n+]1c2cc(N)ccc2cc2ccc(N)cc21.[Cl-] [Compound A26, ACRIFLAVINIUM HYDROCHLORIDE] has what recorded Dose-response (% Inhibition) 10 μM?
102.5

###

Target: Bcl-xL-Beclin 1 complex (Homo sapiens)
Construct: made in house
Test: FP-based high-throughput screening, primary screen
Assay type: binding
Conditions: first screen; 40 μM compound, 2.5 μM Bcl-xL, 400 nM 20-mer
Some molecules, each annotated with its measured Primary Screen mP.
The answer is to be given in mP; state only the numeric part.

CC(C)=CCCC1(C)C=Cc2c(O)c3c(c(CC=C(C)C)c2O1)OC12C(=CCCC1C(C)(C)O[C@@]2(C/C=C(\C)C(=O)O)C(=O)O)C3=O (stereo partly shown)
124.0
O=C(O)c1cc(O)c2c(c1)[C@@H]([C@H]1c3cc(C(=O)O)cc(O)c3C(=O)c3c(O[C@@H]4O[C@H](CO)[C@@H](O)[C@H](O)[C@H]4O)cccc31)c1cccc(O[C@@H]3O[C@H](CO)[C@@H](O)[C@H](O)[C@H]3O)c1C2=O [Compound A35, SENNOSIDE B]
120.4
CCCCCCCCCCCCCCCCC(C(=O)O)C(O)(CC(=O)O)C(=O)O (stereo not shown)
118.2

Item "CCc1oc2ccccc2c1C(=O)c1cc(Br)c(O)c(Br)c1" has what recorded Primary Screen mP?
125.0

###

Some molecules, each annotated with its measured inhibition at 40 µM.
Biological target: Bcl-xL-Beclin 1 complex (Homo sapiens)
Construct: made in house
Test: Concentration response FP reconfirmation of HTS hits
Type: binding
Settings: read-out: Dose-response (% Inhibition) 40 μM
Counter-ions that a name gives are not always drawn.
The answer is to be given in %; state only the numeric part.

Item CC[n+]1c(-c2ccccc2)c2cc(N)ccc2c2ccc(N)cc21 [Compound A12, HOMIDIUM BROMIDE] has what recorded inhibition at 40 µM?
12

Another molecule to look at: "Cc1cc2c(C(C)C)c(O)c(O)c(C=O)c2c(O)c1-c1c(C)cc2c(C(C)C)c(O)c(O)c(C=O)c2c1O"
8.4

Another molecule to look at: CN1C[C@H](C(=O)N[C@]2(C)O[C@@]3(O)[C@@H]4CCCN4C(=O)[C@H](Cc4ccccc4)N3C2=O)C=C2c3cccc4[nH]cc(c34)C[C@H]21 [Compound A18, ERGOTAMINE TARTRATE]
5.8

Another molecule to look at: "COc1cccc2c1C(=O)c1c(O)c3c(c(O)c1C2=O)C[C@@](O)(C(C)=O)C[C@@H]3O[C@H]1C[C@H](N)[C@H](O)[C@H](C)O1"
44.4
